assay: Enzyme screens for resolution of racemic N-(methoxycarbonyl)-4-keto-D,L-proline methyl ester (Example 1); assay type: biochemical; conditions: 0.100M racemate; 0.20M sodium succinate pH 6.0, 5 h or 0.20M sodium acetate pH 5.0, 24 h; 5.0 to 50 mg/mL enzyme; 25° C.; optimum
OBSERVABLE: conv. (percent conversion of the racemate) (%)

MOLECULE	ASSAY VALUE
protease, type X: commercial enzyme preparation, source B. thermoproteoliticus rokko (protein, UniProt P00800 233-548, looked up) Thermolysin: ITGTSTVGVGRGVLGDQKNINTTYSTYYYLQDNTRGNGIFTYDAKYRTTLPGSLWADADNQFFASYDAPAVDAHYYAGVTYDYYKNVHNRLSYDGNNAAIRSSVHYSQGYNNAFWNGSQMVYGDGDGQTFIPLSGGIDVVAHELTHAVTDYTAGLIYQNESGAINEAISDIFGTLVEFYANKNPDWEIGEDVYTPGISGDSLRSMSDPAKYGDPDHYSKRYTGTQDNGGVHINSGIINKAAYLISQGGTHYGVSVVGIGRDKLGKIFYRALTQYLTPTSNFSQLRAAAVQSATDLYGSTSQEVASVKQAFDAVGVK	0
protease, type VIII: commercial enzyme preparation, source Bacillus licheniformis (protein, UniProt P00780 106-379, looked up) Subtilisin Carlsberg: AQTVPYGIPLIKADKVQAQGFKGANVKVAVLDTGIQASHPDLNVVGGASFVAGEAYNTDGNGHGTHVAGTVAALDNTTGVLGVAPSVSLYAVKVLNSSGSGSYSGIVSGIEWATTNGMDVINMSLGGASGSTAMKQAVDNAYAKGVVVVAAAGNSGSSGNTNTIGYPAKYDSVIAVGAVDSNSNRASFSSVGAELEVMAPGAGVYSTYPTNTYATLNGTSMASPHVAGAAALILSKHPNLSASQVRNRLSSTATYLGSSFYYGKGLINVEAAAQ	32
protease, trypsin bovine pancreas: commercial trypsin, source bovine pancreas (protein, UniProt P00760 24-246, looked up) Serine protease 1: IVGGYTCGANTVPYQVSLNSGYHFCGGSLINSQWVVSAAHCYKSGIQVRLGEDNINVVEGNEQFISASKSIVHPSYNSNTLNNDIMLIKLKSAASLNSRVASISLPTSCASAGTQCLISGWGNTKSSGTSYPDVLKCLKAPILSDSSCKSAYPGQITSNMFCAGYLEGGKDSCQGDSGGPVVCSGKLQGIVSWGSGCAQKNKPGVYTKVCNYVSWIKQTIASN	0
protease, type XXVII: commercial enzyme preparation, (Nagarase) (protein, UniProt P00782 108-382, looked up) Subtilisin BPN': AQSVPYGVSQIKAPALHSQGYTGSNVKVAVIDSGIDSSHPDLKVAGGASMVPSETNPFQDNNSHGTHVAGTVAALNNSIGVLGVAPSASLYAVKVLGADGSGQYSWIINGIEWAIANNMDVINMSLGGPSGSAALKAAVDKAVASGVVVVAAAGNEGTSGSSSTVGYPGKYPSVIAVGAVDSSNQRASFSSVGPELDVMAPGVSIQSTLPGNKYGAYNGTSMASPHVAGAAALILSKHPNWTNTQVRSSLENTTTKLGDSFYYGKGLINVQAAAQ	27
protease, type XXIV: commercial enzyme preparation, source bacterial (subtil. Carlsberg) (protein, UniProt P00780 106-379, looked up) Subtilisin Carlsberg: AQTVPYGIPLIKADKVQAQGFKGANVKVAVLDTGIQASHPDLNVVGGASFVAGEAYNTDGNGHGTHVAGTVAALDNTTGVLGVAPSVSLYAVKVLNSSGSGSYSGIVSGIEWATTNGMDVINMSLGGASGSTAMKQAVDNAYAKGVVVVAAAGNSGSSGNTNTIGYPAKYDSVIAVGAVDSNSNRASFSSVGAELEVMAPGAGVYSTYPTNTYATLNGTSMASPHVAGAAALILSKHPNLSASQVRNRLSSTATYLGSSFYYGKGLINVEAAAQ	17
protease, trypsin porcine pancreas: commercial trypsin, source porcine pancreas (protein, UniProt P00761 9-231, looked up) Trypsin: IVGGYTCAANSIPYQVSLNSGSHFCGGSLINSQWVVSAAHCYKSRIQVRLGEHNIDVLEGNEQFINAAKIITHPNFNGNTLDNDIMLIKLSSPATLNSRVATVSLPRSCAAAGTECLISGWGNTKSSGSSYPSLLQCLKAPVLSDSSCKSSYPGQITGNMICVGFLEGGKDSCQGDSGGPVVCNGQLQGIVSWGYGCAQKNKPGVYTKVCNYVNWIQQTIAAN	0
